protocol: Hydrophobicity by retention in analytical RP-HPLC (% MeCN at peak elution)
Assay type: physicochemical
particulars: Phenomenex Luna Omega Polar C18 column; gradient 0→60% B during 15 min
assay-endpoint: % MeCN at Elution, Luna Omega (% MeCN)
Respond numerically; units are % MeCN and should not be typed.

% MeCN at Elution, Luna Omega lookup needed for NCCCC[C@H](NC(=O)CCN(Cc1ccc(F)cc1)C(=O)[C@H](CCCCN)NC(=O)CCN(Cc1ccc(F)cc1)C(=O)[C@H](CCCCN)NC(=O)COCCOCCN)C(=O)N(CCC(=O)NCCOCCOCC(=O)N[C@@H](CCCCN)C(=O)N(CCC(=O)N[C@@H](CCCCN)C(=O)N(CCC(=O)N[C@@H](CCCCN)C(=O)N(CCC(=O)NCCOCCOCC(N)=O)Cc1ccc(F)cc1)Cc1ccc(F)cc1)Cc1ccc(F)cc1)Cc1ccc(F)cc1 [Compound 12, H-sPEG2-[X]3-sPEG2-[X]3-sPEG2-NH2] , thanks.
42.0
